testDetails: Solubility determination
Assay type: physicochemical
conditionParameters: solubility
Numbered stars: 1 amine (or outer) side, 2 acyl side, 3 side chain; on linkers, the order of the positions; unused ones are H or OH. Bridge positions count the residues as written; N and C are the ends. Square brackets hold non-standard residues; d marks the D form. Peptide text beside a SMILES is read from it. * marks the point of attachment. Phe(3-Me) = Cc1cccc(C[C@H](N)C(=O)O)c1; Pro(4R-Me) = C[C@H]1CN[C@H](C(=O)O)C1; Hyp = O=C(O)[C@@H]1C[C@@H](O)CN1; NH(4-Me-phenyl) = Cc1ccc(N*)cc1; aThr = C[C@H](O)[C@H](N)C(=O)O; Pip = O=C(O)[C@@H]1CCCCN1; CO = O=C([*:1])[*:2]

- compound: "Cc1ccc(NC(=O)N[C@@H](Cc2cccc(C)c2)C(=O)N[C@@H]2C(=O)N3C[C@H](O)C[C@H]3C(=O)N3CCCC[C@H]3C(=O)N[C@@H](C)C(=O)N3C[C@H](C)C[C@H]3C(=O)O[C@H]2C)cc1 [Compound 26] ({NH(4-Me-phenyl)-CO}-[Phe(3-Me)][aThr][Hyp][Pip]A[Pro(4R-Me)]; ester 2-C)"
  μsol (μM) / µM: 47.7

====

testDetails: Plasma protein binding, rapid equilibrium dialysis
Assay type: in vitro ADME, human
conditionParameters: human, 4 h, 10 μM, pH 7.4
Numbered stars: 1 amine (or outer) side, 2 acyl side, 3 side chain; on linkers, the order of the positions; unused ones are H or OH. Bridge positions count the residues as written; N and C are the ends. Square brackets hold non-standard residues; d marks the D form. Peptide text beside a SMILES is read from it. * marks the point of attachment. Morpholine(3S-CO) = O=C(O)[C@@H]1COCCN1; Phe(3-Me) = Cc1cccc(C[C@H](N)C(=O)O)c1; NH(4-Cl-2-F-phenyl) = Fc1cc(Cl)ccc1N*; Pro(4R-Me) = C[C@H]1CN[C@H](C(=O)O)C1; X1 = O=C([C@@H]1CSCCN1[*:1])[*:2]; Hyp = O=C(O)[C@@H]1C[C@@H](O)CN1; aThr = C[C@H](O)[C@H](N)C(=O)O; Pip = O=C(O)[C@@H]1CCCCN1; X3 = c1cc2c(cc1N*)OCCO2; CO = O=C([*:1])[*:2]
measuredAttribute: Human

- compound: "Cc1cccc(C[C@H](NC(=O)Nc2ccc(Cl)cc2F)C(=O)N[C@@H]2C(=O)N3CCC[C@H]3C(=O)N3CCCC[C@H]3C(=O)N[C@@H](C)C(=O)N3C[C@H](C)C[C@H]3C(=O)O[C@H]2C)c1 [Compound 3] ({NH(4-Cl-2-F-phenyl)-CO}-[Phe(3-Me)][aThr]P[Pip]A[Pro(4R-Me)]; ester 2-C)"
  experimentalResult: "99.0 ± 0.1%"
- compound: "Cc1cccc(C[C@H](NC(=O)Nc2ccc(Cl)cc2F)C(=O)N[C@@H]2C(=O)N3C[C@H](O)C[C@H]3C(=O)N3CCSC[C@H]3C(=O)N[C@@H](C)C(=O)N3C[C@H](C)C[C@H]3C(=O)O[C@H]2C)c1 [Compound 41] ({NH(4-Cl-2-F-phenyl)-CO}-[Phe(3-Me)][aThr][Hyp][X1]A[Pro(4R-Me)]; ester 2-C)"
  experimentalResult: "99.7 ± 9.7%"
- compound: "Cc1cccc(C[C@H](NC(=O)Nc2ccc3c(c2)OCCO3)C(=O)N[C@@H]2C(=O)N3C[C@H](O)C[C@H]3C(=O)N3CCOC[C@H]3C(=O)N[C@@H](C)C(=O)N3C[C@H](C)C[C@H]3C(=O)O[C@H]2C)c1 [Compound 27] ({X3-CO}-[Phe(3-Me)][aThr][Hyp][Morpholine(3S-CO)]A[Pro(4R-Me)]; ester 2-C)"
  experimentalResult: "91.1 ± 1.1%"
